The reported numbers originate from patent US8252737B2.

Tested on: human erythrocytes
protocol.text: Hemolytic activity (MHC), Protocol A, 12 hours
measurement.context: incubation for 12 hours at 37° C. (Tables 7 and 8)
Known minimal hemolytic concentration (MHC) of a selection of substances
measure.name: minimal hemolytic concentration (MHC) (µg/mL)

| substance | measure.name | scale.unit | reported.result |
| --- | --- | --- | --- |
| Ac-KWKSFLKTFKVAVKTVLHTALKAISS-NH2 [PVL] | minimal hemolytic concentration (MHC) | µg/mL | 7.8 |
| Ac-KWKSFLKTFKSASKTVLHTALKAISS-NH2 [NSL] | minimal hemolytic concentration (MHC) | µg/mL | 125 |
| Ac-KWKSFLKTFKSALKTVLHTALKAISS-NH2 [NLL] | minimal hemolytic concentration (MHC) | µg/mL | 7.8 |
| Ac-KWKSFLKTFKSAGKTVLHTALKAISS-NH2 [NG] | minimal hemolytic concentration (MHC) | µg/mL | 125 |
